Tested on: KG-1
Assay: Antiproliferative activity against human KG-1 cells assessed as inhibition of cell growth incubated for 72 hrs by MTT assay
Assay type: functional, cell-based
Settings: KG-1, 72 h
observation.type: pIC50
Friendly reminder that pIC50 comes from taking -log10 of the concentration in mol/L.

| smiles.representation | measured.on | observation.type | reported.measurement |
| --- | --- | --- | --- |
| CCc1nccnc1C(=O)/C=C/c1cccs1 | KG-1 | pIC50 | 4.71 |
| Cc1nccnc1C(=O)/C=C/c1ccc(C#N)cc1 | KG-1 | pIC50 | 6.00 |
| CCc1nccnc1C(=O)/C=C/c1cc2c(cc1[N+](=O)[O-])OCO2 | KG-1 | pIC50 | 5.03 |
| O=C(/C=C/C=C/c1ccccc1)c1cnccn1 | KG-1 | pIC50 | 4.65 |
| Cc1cccc(/C=C/C(=O)c2cnccn2)c1 | KG-1 | pIC50 | 5.01 |

// switching to the query compound
Tell us which pIC50 value is on record for `O=C(/C=C/c1ccc2c(c1)OC(F)(F)O2)c1cnccn1`
4.76

---

System: THP-1
Assay: Antiproliferative activity against human THP-1 cells assessed as inhibition of cell growth incubated for 72 hrs by MTT assay
Assay type: functional, cell-based
Settings: THP-1, 72 h
observation.type: IC50 (µM)
Kindly answer with a numeric value in µM, unit omitted.

| smiles.representation | measured.on | IC50 (µM) |
| --- | --- | --- |
| CCc1nccnc1C(=O)/C=C/c1ccccc1C | THP-1 | 4.91 |
| Cc1nccnc1C(=O)/C=C/c1ccccc1Br | THP-1 | 1.95 |
| CC(/C=C/C(=O)c1cnccn1)=C\c1ccccc1 | THP-1 | 19.4 |
| O=C(/C=C/c1cccc(Cl)c1)c1cnccn1 | THP-1 | 10.3 |
| CCc1nccnc1C(=O)/C=C/c1ccccc1F | THP-1 | 3.52 |

Tell us which IC50 value is on record for `Cc1nccnc1C(=O)/C=C/c1cccc(Br)c1`
1.64

Tell us which IC50 value is on record for `O=C(/C=C/c1ccccc1N1CCOCC1)c1cnccn1`
8.39

Tell us which IC50 value is on record for `Cc1ccc(/C=C/C(=O)c2cnccn2)cc1`
19.9

Tell us which IC50 value is on record for `O=C(/C=C/c1cc2c(cc1[N+](=O)[O-])OCO2)c1cnccn1`
2.02

Tell us which IC50 value is on record for `CCc1nccnc1C(=O)/C=C/c1cccc(C#N)c1`
0.98

Tell us which IC50 value is on record for `CCc1nccnc1C(=O)/C=C/c1ccc(Cl)cc1`
4.7

Tell us which IC50 value is on record for `CCc1nccnc1C(=O)/C=C/c1ccc(Br)cc1`
5.34

Tell us which IC50 value is on record for `O=C(/C=C/c1cccc([N+](=O)[O-])c1)c1cnccn1`
5.29

Tell us which IC50 value is on record for `CCc1nccnc1C(=O)/C=C/C=C/c1ccc(F)cc1`
7.16

Tell us which IC50 value is on record for `CCc1nccnc1C(=O)/C=C/c1csc2ccccc12`
2.39

Tell us which IC50 value is on record for `O=C(/C=C/c1cccc(Cl)c1Cl)c1cnccn1`
12.2

Tell us which IC50 value is on record for `CC(C)(C)c1ccc(/C=C/C(=O)c2cnccn2)cc1`
16

Tell us which IC50 value is on record for `Cc1ccccc1/C=C/C(=O)c1cnccn1`
15.7

Tell us which IC50 value is on record for `CCc1nccnc1C(=O)/C=C/c1cccs1`
10.3
